# measurementTarget: hERG (Potassium voltage-gated channel subfamily H member 2) (Homo sapiens, UniProt Q12809)
# Sequence (Q12809 whole entry): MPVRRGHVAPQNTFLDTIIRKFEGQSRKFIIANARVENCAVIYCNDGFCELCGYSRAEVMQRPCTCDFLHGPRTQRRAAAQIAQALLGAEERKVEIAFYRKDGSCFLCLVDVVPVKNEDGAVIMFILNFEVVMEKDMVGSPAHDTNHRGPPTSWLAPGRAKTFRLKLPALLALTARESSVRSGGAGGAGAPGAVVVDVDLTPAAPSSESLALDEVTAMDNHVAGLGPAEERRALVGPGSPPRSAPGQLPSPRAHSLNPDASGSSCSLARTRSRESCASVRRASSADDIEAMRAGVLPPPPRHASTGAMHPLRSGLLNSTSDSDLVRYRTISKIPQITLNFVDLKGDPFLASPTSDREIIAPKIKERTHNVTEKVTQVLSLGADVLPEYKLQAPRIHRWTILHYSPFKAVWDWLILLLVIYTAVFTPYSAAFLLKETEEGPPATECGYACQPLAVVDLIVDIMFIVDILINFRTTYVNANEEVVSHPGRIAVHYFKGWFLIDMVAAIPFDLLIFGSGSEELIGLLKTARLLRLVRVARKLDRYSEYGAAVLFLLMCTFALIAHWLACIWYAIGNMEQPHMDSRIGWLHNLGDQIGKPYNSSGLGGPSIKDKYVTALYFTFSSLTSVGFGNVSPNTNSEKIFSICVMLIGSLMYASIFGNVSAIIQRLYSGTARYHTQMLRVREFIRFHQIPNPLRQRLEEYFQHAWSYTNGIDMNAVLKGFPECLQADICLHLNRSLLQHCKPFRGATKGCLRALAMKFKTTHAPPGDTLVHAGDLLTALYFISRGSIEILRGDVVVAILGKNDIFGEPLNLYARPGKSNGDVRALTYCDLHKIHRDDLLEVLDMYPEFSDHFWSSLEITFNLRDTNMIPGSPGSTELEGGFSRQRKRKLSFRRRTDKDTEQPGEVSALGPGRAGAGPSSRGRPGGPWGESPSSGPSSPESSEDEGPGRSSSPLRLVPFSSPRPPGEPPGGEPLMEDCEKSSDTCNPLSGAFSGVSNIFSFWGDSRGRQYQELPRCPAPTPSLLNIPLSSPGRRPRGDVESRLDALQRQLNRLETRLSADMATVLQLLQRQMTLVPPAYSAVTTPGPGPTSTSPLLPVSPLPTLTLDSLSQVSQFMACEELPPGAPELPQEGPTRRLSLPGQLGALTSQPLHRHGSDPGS
# protocolDetails: hERG Channel Inhibition
# measurementConditions: HEK293 cells stably expressing hERG channel, pH 7.35
endpoint: IC50 at 5 min (µM)
Return type: number; implicit unit µM.

Ask: Input FC(F)(F)Oc1ccc(C(F)(F)CN2CCC(Nc3ncnc4[nH]ccc34)CC2)nc1 [US11752155, Compound C-11A'] , output reported IC50 at 5 min.
Result: 3.8
